test system: DU 145 (prostate, carcinoma) cells; test: Cell viability assay, CellTiter-Glo (Example 21); type: cell-based, human; conditions: 100 nM, 72 h
ENDPOINT_LABEL: DU 145 cell viability

What value of DU 145 cell viability has been recorded for this entry: O=C1C2=C(CCN(Cc3cccc(F)c3)C2)N2CCN=C2N1Cc1ccc(C(F)(F)F)cc1 [I/3, reference compound]
7.1 ± 1.6 % of control

# DU 145 cell viability lookup, item [N-]=[N+]=Nc1cccc(CN2CCC3=C(C2)C(=O)N(Cc2ccc(C(F)(F)F)cc2)C2=NCCN23)c1
7.1 ± 2.0 % of control

Query: DU 145 cell viability; subject: [N-]=[N+]=Nc1cccc(CN2CCC3=C(C2)C(=O)N(Cc2ccc(Cl)cc2)C2=NCCN23)c1
8.0 ± 2.0 % of control

Fill in the blank: the reported DU 145 cell viability of O=C1C2=C(CCN(Cc3cc(F)cc(F)c3)C2)N2CCN=C2N1Cc1ccc(F)cc1 is ____.
7.2 ± 2.3 % of control

Give the measured DU 145 cell viability of O=C1C2=C(CCN(Cc3cccc(F)c3)C2)N2CCN=C2N1Cc1ccc(F)cc1 [I/6, reference compound] .
8.0 ± 1.4 % of control

# lookup: DU 145 cell viability of [N-]=[N+]=Nc1ccc(CN2C(=O)C3=C(CCN(Cc4cc(F)cc(F)c4)C3)N3CCN=C23)cc1
8.3 ± 2.9 % of control

Query: DU 145 cell viability; subject: O=C1C2=C(CCN(Cc3cc(F)cc(F)c3)C2)N2CCN=C2N1Cc1ccc(C(F)(F)F)cc1
7.0 ± 1.1 % of control

Could you share which DU 145 cell viability value was measured for O=C1C2=C(CCN(Cc3ccccc3)C2)N2CCN=C2N1Cc1ccc(C(F)(F)F)cc1 [I/1, reference compound] ?
17.5 ± 4.2 % of control

DU 145 cell viability lookup needed for O=C1C2=C(CCN(Cc3cc(F)cc(F)c3)C2)N2CCN=C2N1Cc1ccc(Cl)cc1 , thanks.
8.0 ± 1.0 % of control

====

Please provide measured Capan-1 (pancreas, adenocarcinoma) cell viability (% of control) for the entries that follow.
test system: Capan-1 (pancreas, adenocarcinoma) cells; assay: Cell viability assay, CellTiter-Glo (Example 21); type: cell-based, human; conditions: 100 nM, 72 h treatment

Record O=C1C2=C(CCN(Cc3cc(F)cc(F)c3)C2)N2CCN=C2N1Cc1ccc(Cl)cc1 : what is its Capan-1 (pancreas, adenocarcinoma) cell viability (% of control) with Capan-1 (pancreas, adenocarcinoma) cells?
33.6 ± 1.1 % of control

Request body: readout Capan-1 (pancreas, adenocarcinoma) cell viability (% of control), system Capan-1 (pancreas, adenocarcinoma) cells, query [N-]=[N+]=Nc1cccc(CN2CCC3=C(C2)C(=O)N(Cc2ccc(C(F)(F)F)cc2)C2=NCCN23)c1 . Return the value.
31.7 ± 1.7 % of control

What is its Capan-1 (pancreas, adenocarcinoma) cell viability (% of control) for Capan-1 (pancreas, adenocarcinoma) cells? Entry: O=C1C2=C(CCN(Cc3ccccc3)C2)N2CCN=C2N1Cc1ccc(C(F)(F)F)cc1 [I/1, reference compound]
88.1 ± 4.2 % of control

What reported Capan-1 (pancreas, adenocarcinoma) cell viability (% of control) corresponds to O=C1C2=C(CCN(Cc3cc(F)cc(F)c3)C2)N2CCN=C2N1Cc1ccc(C(F)(F)F)cc1 on Capan-1 (pancreas, adenocarcinoma) cells?
34.0 ± 2.8 % of control

What is its Capan-1 (pancreas, adenocarcinoma) cell viability (% of control) for Capan-1 (pancreas, adenocarcinoma) cells? Entry: O=C1C2=C(CCN(Cc3cccc(F)c3)C2)N2CCN=C2N1Cc1ccc(F)cc1 [I/6, reference compound]
40.1 ± 3.7 % of control

What measured Capan-1 (pancreas, adenocarcinoma) cell viability (% of control) is associated with O=C1C2=C(CCN(Cc3cc(F)cc(F)c3)C2)N2CCN=C2N1Cc1ccc(F)cc1 on Capan-1 (pancreas, adenocarcinoma) cells?
36.1 ± 2.8 % of control

Form entry - test system: Capan-1 (pancreas, adenocarcinoma) cells; read-out: Capan-1 (pancreas, adenocarcinoma) cell viability (% of control); compound: [N-]=[N+]=Nc1cccc(CN2CCC3=C(C2)C(=O)N(Cc2ccc(Cl)cc2)C2=NCCN23)c1
32.6 ± 4.0 % of control

Lookup: Capan-1 (pancreas, adenocarcinoma) cell viability (% of control) / Capan-1 (pancreas, adenocarcinoma) cells / O=C1C2=C(CCN(Cc3cccc(F)c3)C2)N2CCN=C2N1Cc1ccc(C(F)(F)F)cc1 [I/3, reference compound]
38.7 ± 2.8 % of control

What Capan-1 (pancreas, adenocarcinoma) cell viability (% of control) appears in the records for this compound with Capan-1 (pancreas, adenocarcinoma) cells? [N-]=[N+]=Nc1ccc(CN2C(=O)C3=C(CCN(Cc4cc(F)cc(F)c4)C3)N3CCN=C23)cc1
37.6 ± 2.3 % of control
